Would you kindly list Residual trypsin activity for each of these compounds?
ASSAYED_SYSTEM: bovine trypsin (Bos taurus)
Sequence (P00760 24-246): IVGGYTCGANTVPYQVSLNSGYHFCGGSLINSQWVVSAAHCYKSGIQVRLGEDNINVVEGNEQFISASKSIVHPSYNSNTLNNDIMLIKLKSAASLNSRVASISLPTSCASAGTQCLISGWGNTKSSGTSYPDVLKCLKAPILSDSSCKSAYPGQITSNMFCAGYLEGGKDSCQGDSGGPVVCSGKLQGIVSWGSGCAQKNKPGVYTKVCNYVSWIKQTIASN
ASSAY_COMMENT: Trypsin inhibitory activity of peptides (BApNA hydrolysis, OD405; IC50, Ki, residual activity)
Type: biochemical
SETUP_CONDITIONS: peptide 0.7317 μM
Bridge positions count the residues as written; N and C are the ends. Peptide text beside a SMILES is read from it.
Give bare numbers, in %.

COMPOUND: CC[C@H](C)[C@@H]1NC(=O)[C@@H]2CCCN2C(=O)[C@@H]2CCCN2C(=O)[C@H]([C@@H](C)CC)NC(=O)[C@H](CO)NC(=O)[C@H](CCCNC(=N)N)NC(=O)[C@H]([C@@H](C)O)NC(=O)[C@H](C)NC(=O)[C@H](CCCNC(=N)N)NC(=O)CNC(=O)[C@@H](N)CSSC[C@@H](C(=O)N[C@@H](Cc2ccccc2)C(=O)O)NC1=O [BT17] (H-CGRATRSIPPICF-OH; disulfide 1-12; C-terminus assumed)
ASSAYED_SYSTEM: bovine trypsin (Bos taurus)
EXPERIMENTAL_VALUE: 30.0

// input: 3 compounds below; output: Residual trypsin activity for each
1. CC[C@H](C)[C@@H]1NC(=O)[C@H](C)NC(=O)[C@@H]2CCCN2C(=O)[C@H]([C@@H](C)CC)NC(=O)[C@H](CO)NC(=O)[C@H](CCCCN)NC(=O)[C@H]([C@@H](C)O)NC(=O)[C@H](C)NC(=O)[C@H](CCCNC(=N)N)NC(=O)CNC(=O)[C@@H](N)CSSC[C@@H](C(=O)N[C@@H](Cc2ccccc2)C(=O)O)NC1=O [BT10] (H-CGRATKSIPAICF-OH; disulfide 1-12)
2. CC[C@H](C)[C@@H]1NC(=O)[C@@H]2CCCN2C(=O)[C@@H]2CCCN2C(=O)[C@H]([C@@H](C)CC)NC(=O)[C@H](CO)NC(=O)[C@H](CCCCN)NC(=O)[C@H]([C@@H](C)O)NC(=O)[C@H](C)NC(=O)[C@H](CCCNC(=N)N)NC(=O)CNC(=O)[C@@H](N)CSSC[C@@H](C(=O)O)NC(=O)[C@H](Cc2ccccc2)NC(=O)[C@H](C)NC1=O [BT11] (H-CGRATKSIPPIAFC-OH; disulfide 1-14; N-terminus and C-terminus assumed)
3. CC[C@H](C)[C@@H]1NC(=O)[C@@H]2CCCN2C(=O)[C@@H]2CCCN2C(=O)[C@H]([C@@H](C)CC)NC(=O)[C@H](CO)NC(=O)[C@H](CCCCN)NC(=O)[C@H]([C@@H](C)O)NC(=O)[C@H](C)NC(=O)[C@H]([C@@H](C)O)NC(=O)CNC(=O)[C@@H](N)CSSC[C@@H](C(=O)N[C@@H](Cc2ccccc2)C(=O)O)NC1=O [BT25] (H-CGTATKSIPPICF-OH; disulfide 1-12; C-terminus assumed)

0.2
102.4
82.3
